System: H. flu
Type: cell-based, H. influenza
Settings: H. flu
# reported MIC (μg/mL) H. flu; entries follow
Answer with a number only, understood to be in µg/mL.

Use these answered entries as a reference point.
COC1C=COC2(C)Oc3c(C)c(O)c4c(=O)c(c5oc6cc(N(C)CC(C)C)cc(O)c6nc-5c4c3C2=O)NC(=O)C(C)=CC=CC(C)C(O)C(C)C(O)C(C)C(O)C1C (stereo not drawn) [Compound 125]	0.5
COC1C=COC2(C)Oc3c(C)c(O)c4c(=O)c(c5sc6cc(N7CCC(N(C)C)CC7)ccc6nc-5c4c3C2=O)NC(=O)C(C)=CC=CC(C)C(O)C(C)C(O)C(C)C(OC(C)=O)C1C (stereo not drawn) [Compound 69]	0.5
COC1C=COC2(C)Oc3c(C)c(O)c4c(=O)c(c5oc6cc(N7CCC(C)(N(C)C)CC7)cc(O)c6nc-5c4c3C2=O)NC(=O)C(C)=CC=CC(C)C(O)C(C)C(O)C(C)C(OC(C)=O)C1C (stereo not drawn) [Compound 71]	0.5
COC1C=COC2(C)Oc3c(C)c(O)c4c(=O)c(c5oc6cc(N7CCC(N(C)C)C7)cc(O)c6nc-5c4c3C2=O)NC(=O)C(C)=CC=CC(C)C(O)C(C)C(O)C(C)C(OC(C)=O)C1C (stereo not drawn) [Compound 75]	0.25
COC1C=COC2(C)Oc3c(C)c(O)c4c(=O)c(c5oc6cc(N(C)C7CCN(C)CC7)cc(O)c6nc-5c4c3C2=O)NC(=O)C(C)=CC=CC(C)C(O)C(C)C(O)C(C)C(O)C1C (stereo not drawn) [Compound 126]	0.25
COC1C=COC2(C)Oc3c(C)c(O)c4c(=O)c(c5oc6cc(N7CCN(CCN(C)C)CC7)cc(O)c6nc-5c4c3C2=O)NC(=O)C(C)=CC=CC(C)C(O)C(C)C(O)C(C)C(O)C1C (stereo not drawn) [Compound 100]	0.12
CCOC(=O)N1CCCC2CN(c3cc(O)c4nc5c6c7c8c(C)c(O)c6c(=O)c(c-5oc4c3)NC(=O)C(C)=CC=CC(C)C(O)C(C)C(O)C(C)C(O)C(C)C(OC)C=COC(C)(O8)C7=O)CC21 (mixture of isomers) [Compound 42]	0.5
CCOc1c(N2CCN(CCOC)CC2)cc(N2CCN(CCOC)CC2)c2nc3c4c5c6c(C)c(O)c4c(=O)c(c-3oc12)NC(=O)C(C)=CC=CC(C)C(O)C(C)C(O)C(C)C(O)C(C)C(OC)C=COC(C)(O6)C5=O (stereo not drawn) [Compound 92]	2

Quickly give me recorded MIC (μg/mL) H. flu for CCOC(=O)NC1C2CN(c3cc(O)c4nc5c6c7c8c(C)c(O)c6c(=O)c(c-5oc4c3)NC(=O)C(C)=CC=CC(C)C(O)C(C)C(O)C(C)C(OC(C)=O)C(C)C(OC)C=COC(C)(O8)C7=O)CC21 (stereo not drawn) [Compound 21]
0.5

Recall and state the measured MIC (μg/mL) H. flu for COC1C=COC2(C)Oc3c(C)c(O)c4c(=O)c(c5oc6cc(N7CCC(NS(=O)(=O)C(F)(F)F)CC7)cc(O)c6nc-5c4c3C2=O)NC(=O)C(C)=CC=CC(C)C(O)C(C)C(O)C(C)C(O)C1C (stereo not drawn) [Compound 38] .
0.25

Report MIC (μg/mL) H. flu, nothing else, for this compound: COC1C=COC2(C)Oc3c(C)c(O)c4c(=O)c(c5oc6cc(N7CCC(C)(NC(C)=O)CC7)cc(O)c6nc-5c4c3C2=O)NC(=O)C(C)=CC=CC(C)C(O)C(C)C(O)C(C)C(OC(C)=O)C1C (stereo not drawn) [Compound 72]
0.5

Give the value of MIC (μg/mL) H. flu reported for the following: CO[C@H]1/C=C/O[C@@]2(C)Oc3c(C)c(O)c4c(=O)c(c5oc6cc(N7CCC(NC(=O)OC(C)C)CC7)cc(O)c6nc-5c4c3C2=O)NC(=O)/C(C)=C\C=C\[C@H](C)[C@H](O)[C@@H](C)[C@@H](O)[C@@H](C)[C@H](OC(C)=O)[C@@H]1C [Compound 22]
2

Entry CCC1CN(c2cc(O)c3nc4c5c6c7c(C)c(O)c5c(=O)c(c-4oc3c2)NC(=O)C(C)=CC=CC(C)C(O)C(C)C(O)C(C)C(O)C(C)C(OC)C=COC(C)(O7)C6=O)CC(CC)N1 (stereo not drawn) [Compound 88] needs its MIC (μg/mL) H. flu filled in; supply it.
0.25

Read off the recorded MIC (μg/mL) H. flu for CCCNC(=O)NC1CCN(c2cc(O)c3nc4c5c6c7c(C)c(O)c5c(=O)c(c-4oc3c2)NC(=O)/C(C)=C\C=C\[C@H](C)[C@H](O)[C@@H](C)[C@@H](O)[C@@H](C)[C@H](O)[C@H](C)[C@@H](OC)/C=C/O[C@@](C)(O7)C6=O)CC1 [Compound 26]
1
